B1: library; numbered along this chain (parent)
chain: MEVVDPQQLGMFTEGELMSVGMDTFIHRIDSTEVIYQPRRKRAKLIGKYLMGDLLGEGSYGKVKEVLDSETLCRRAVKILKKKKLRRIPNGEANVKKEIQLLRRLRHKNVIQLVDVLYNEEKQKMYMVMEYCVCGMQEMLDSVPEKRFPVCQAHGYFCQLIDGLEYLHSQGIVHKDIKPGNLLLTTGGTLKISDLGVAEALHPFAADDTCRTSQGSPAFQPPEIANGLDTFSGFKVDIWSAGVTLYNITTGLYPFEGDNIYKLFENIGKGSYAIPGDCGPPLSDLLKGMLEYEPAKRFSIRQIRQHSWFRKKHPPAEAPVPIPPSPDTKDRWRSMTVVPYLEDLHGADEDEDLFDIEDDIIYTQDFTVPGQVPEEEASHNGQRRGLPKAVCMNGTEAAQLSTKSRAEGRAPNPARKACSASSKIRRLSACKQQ

- Variants of: B1
- ASSAY NAME: STK11 functional score (HeLa growth suppression), rescaled enrichment; synonymous median = 1, nonsense median = 0 (normalised score)
- CONDITION SUMMARY: with HeLa; variant type: missense
QUANTITY NAME: STK11 functional score
I'd appreciate a reply containing only the number, no unit.

Past entries and their recorded results:
1) S59A ... 1.19
2) K312L ... 1.3
3) R211L ... 1.21
4) E375S ... 1.39
5) I35W ... 1.61
6) E291T ... 1.15
7) P373G ... 1.53
8) L286P ... -0.27

Ask: I'd like to know its STK11 functional score. The variant in question is G233R
Reply: 0.173
